# assayed.target: T1, human VEGF-A165 (VEGF homodimer with each monomer having 165 amino acid residues) (Homo sapiens, UniProt P15692-4, strain, biotin (site not stated; named for Supplementary Table 2 only))
# T1 construct: also called hVEGF-A165; hVEGF; source: bought: Peprotech (catalogue number AF-100-20)
# T1 sequence (P15692 whole entry, looked up, change not shown): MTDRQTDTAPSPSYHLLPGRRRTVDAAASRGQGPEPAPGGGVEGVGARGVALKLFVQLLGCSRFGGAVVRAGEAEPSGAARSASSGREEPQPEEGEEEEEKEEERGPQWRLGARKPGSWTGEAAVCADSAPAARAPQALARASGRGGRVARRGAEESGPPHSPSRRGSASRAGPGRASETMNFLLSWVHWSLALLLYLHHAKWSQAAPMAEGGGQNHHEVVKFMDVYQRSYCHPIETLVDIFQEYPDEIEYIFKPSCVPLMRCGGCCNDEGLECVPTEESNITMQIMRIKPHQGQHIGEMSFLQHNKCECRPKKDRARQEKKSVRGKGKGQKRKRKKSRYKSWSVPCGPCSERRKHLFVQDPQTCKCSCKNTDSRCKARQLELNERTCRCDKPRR
# experiment.description: inhibition of binding of hVEGF-A165 to hVEGFR2-Fc (luminescence read-out); antibody titrated (pM); binding signal in relative luminescence units; triplicates
# measurement.context: both partners purified
measure: pIC50
Scale note: pIC50 = -log10(concentration in M).

Query: Could you share which pIC50 value was measured for LAVA1 (NVS24): NVS0 Fab with the LINK domain of human TSG6 fused to the C terminus of the heavy chain (Fab, V domains shown, Fab heavy chain of NVS0 (from brolucizumab); linker; TSG6 (TNF-stimulated gene 6 protein), human, LINK domain; Fab light chain of NVS0 (from brolucizumab); The LINK domain has a natural N-linked glycosylation site) VH: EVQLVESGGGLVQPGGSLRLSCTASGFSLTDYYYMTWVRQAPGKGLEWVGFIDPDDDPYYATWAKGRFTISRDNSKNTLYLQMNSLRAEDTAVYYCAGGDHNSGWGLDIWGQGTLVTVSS VL: EIVMTQSPSTLSASVGDRVIITCQASEIIHSWLAWYQQKPGKAPKLLIYLASTLASGVPSRFSGSGSGAEFTLTISSLQPDDFATYYCQNVYLASTNGANFGQGTKLTVL ?
Reply: 9.55
